# Tested on: platelet aggregation by ADP
# MEASUREMENT_PROTOCOL: Platelet aggregation in vitro (inhibition of ADP-induced aggregation of guinea pig PRP, Born's method)
# Assay type: cell-based, guinea pigs
# CONDITIONS_USED: Cavia porcellus, ADP 0.6-1 μM, 37° C.
PARAMETER_MEASURED: pIC50
Scale for pIC50: -log10 of concentration given in mol/L; no unit attached.

Solved cases (3 shown):
>>> observed("N=C(N)NCCCC(=O)NCCC[C@H]1C(=O)N(CC(=O)O)CCN1C(=O)CNC(=O)c1ccc(C(=N)N)cc1 [compound 13]")
6.96
>>> observed("N=C(N)c1ccc(C(=O)NCCC[C@H]2C(=O)N(CC(=O)O)CCN2C(=O)CNC(=O)c2ccc(C(=N)N)cc2)cc1 [compound 2]")
7.43
>>> observed("COc1ccc(C[C@H](NC(=O)c2ccc(C(=N)N)cc2)C(=O)N2CCN(CC(=O)O)C(=O)[C@@H]2CCCCNC(=O)c2ccc(C(=N)N)cc2)cc1 [compound 8]")
7.92

IN: So what's the measured pIC50 for this one? COc1ccc(C[C@H](NC(=O)c2ccc(C(=N)N)cc2)C(=O)N2CCN(CC(=O)O)C(=O)[C@@H]2CCCN)cc1 [compound 5]
OUT: 7.80

IN: Can you check N=C(N)Nc1ccc(C(=O)NCC[C@H]2C(=O)N(CC(=O)O)CCN2C(=O)CNC(=O)c2ccc(C(=N)N)cc2)cc1 [compound 16] next?
OUT: 7.36

IN: Can you check N=C(N)c1ccc(C(=O)NCC[C@H]2C(=O)N(CC(=O)O)CCN2C(=O)CNC(=O)c2ccc(C(=N)N)cc2)cc1 [compound 19] next?
OUT: 6.74

====

# Tested on: platelet aggregation by ADP
# MEASUREMENT_PROTOCOL: Platelet aggregation in vitro (inhibition of ADP-induced aggregation of guinea pig PRP, Born's method)
# Type: cell-based, guinea pigs
# CONDITIONS_USED: Cavia porcellus, ADP 0.6-1 μM, 37° C.
# Procedure: Determination of Platelet Aggregation in Vitro Blood was collected from abdominal aorta of guinea pigs under anesthesia with pentobarbital (20 mg/kg, i.p.) using sodium citrate as an anticoagulant (final concentration: 0.315%). […] The number of platelet was counted an automatic platelet counter (Sysmex E2500, Toaiyo-denshi). […]
Recorded pIC50, one value per entry.
Scale for pIC50: -log10 of concentration given in mol/L; no unit attached.

>>> observed("N=C(N)c1ccc(C(=O)NCC(=O)N2CCN(CC(=O)O)C(=O)[C@@H]2CCCNC(=O)CCCCCN)cc1 [compound 9]")
6.74
>>> observed("COc1ccc(C[C@H](NC(=O)c2ccc(C(=N)N)cc2)C(=O)N2CCN(CC(=O)O)C(=O)[C@@H]2CCCCNC(=N)N)cc1 [compound 12]")
7.60
>>> observed("COc1ccc(C[C@H](NC(=O)c2ccc(C(=N)N)cc2)C(=O)N2CCN(CC(=O)O)C(=O)[C@@H]2CCCNC(=O)c2ccc(C(=N)N)cc2)cc1 [compound 6]")
7.70
>>> observed("N=C(N)c1ccc(C(=O)NCC(=O)N2CCN(CC(=O)O)C(=O)[C@@H]2CCCNC(=O)CCCN)cc1 [compound 11]")
6.64

IN: So what's the measured pIC50 for this one? N=C(N)NCc1ccc(C(=O)NC[C@H]2C(=O)N(CC(=O)O)CCN2C(=O)CNC(=O)c2ccc(C(=N)N)cc2)cc1 [compound 26]
OUT: 7.08

IN: Can you check COC(=O)ON=C(N)c1ccc(C(=O)NCCC[C@H]2C(=O)N(CC(=O)O)CCN2C(=O)CNC(=O)c2ccc(C(N)=NOC(=O)OC)cc2)cc1 [compound 30] next?
OUT: 4.72

IN: Can you check COc1ccc(C[C@H](NC(=O)c2ccc(C(=N)N)cc2)C(=O)N2CCN(CC(=O)O)C(=O)[C@@H]2CCCNC(=O)CCCCCN)cc1 [compound 27] next?
OUT: 7.74

IN: Can you check N=C(N)c1ccc(NC(=O)CC[C@H]2C(=O)N(CC(=O)O)CCN2C(=O)CNC(=O)c2ccc(C(=N)N)cc2)cc1 [compound 24] next?
OUT: 6.60

IN: Can you check COc1ccc(C[C@H](NC(=O)c2ccc(C(=N)N)cc2)C(=O)N2CCN(CC(=O)O)C(=O)[C@@H]2CCCCN)cc1 [compound 7] next?
OUT: 7.72

====

# Test system: platelet aggregation by ADP
# MEASUREMENT_PROTOCOL: Platelet aggregation in vitro (inhibition of ADP-induced aggregation of guinea pig PRP, Born's method)
# Format: cell-based, guinea pigs
# CONDITIONS_USED: Cavia porcellus, ADP 0.6-1 μM, 37° C.
Recorded pIC50, one value per entry.
Scale for pIC50: -log10 of concentration given in mol/L; no unit attached.

Solved cases (5 shown):
>>> observed("N=C(N)c1ccc(C(=O)NCC(=O)N2CCN(CC(=O)O)C(=O)[C@@H]2CCCN)cc1 [compound 1]")
6.28
>>> observed("N=C(N)Nc1ccc(C(=O)NCCC[C@H]2C(=O)N(CC(=O)O)CCN2C(=O)CNC(=O)c2ccc(C(=N)N)cc2)cc1 [compound 23]")
7.77
>>> observed("N=C(N)Cc1ccc(C(=O)NC[C@H]2C(=O)N(CC(=O)O)CCN2C(=O)CNC(=O)c2ccc(C(=N)N)cc2)cc1 [compound 25]")
7.27
>>> observed("N=C(N)c1ccc(C(=O)NCCC[C@@H]2C(=O)N(CC(=O)O)CCN2C(=O)CNC(=O)c2ccc(C(=N)N)cc2)cc1 [compound 22]")
5.42
>>> observed("N=C(N)c1ccc(C(=O)NCC(=O)N2CCN(CC(=O)O)C(=O)[C@@H]2CN)cc1 [compound 17]")
6.62

IN: So what's the measured pIC50 for this one? COC(=O)ON=C(N)c1ccc(C(=O)NCCC[C@H]2C(=O)N(CC(=O)O)CCN2C(=O)CNC(=O)c2ccc(C(=N)N)cc2)cc1 [compound 31]
OUT: 6.72

IN: Can you check COc1ccc(C[C@H](NC(=O)c2ccc(C(=N)N)cc2)C(=O)N2CCN(CC(=O)O)C(=O)[C@@H]2CCCCNC(=O)CN)cc1 [compound 28] next?
OUT: 7.72

====

Recorded IC50, one value per entry.
# Test system: platelet aggregation by ADP
# MEASUREMENT_PROTOCOL: Platelet aggregation in vitro (inhibition of ADP-induced aggregation of guinea pig PRP, Born's method)
# Format: cell-based, guinea pigs
# CONDITIONS_USED: Cavia porcellus, ADP 0.6-1 μM, 37° C.
Entry rule: numbers only, all in nM.

Solved cases (3 shown):
>>> observed("N=C(N)c1ccc(C(=O)NCCC[C@H]2C(=O)N(CC(=O)O)CCN2C(=O)CNC(=O)c2ccc(CCN)cc2)cc1")
53
>>> observed("N=C(N)Nc1ccc(C(=O)NCCC[C@H]2C(=O)N(CC(=O)O)CCN2C(=O)CNC(=O)c2ccc(NC(=N)N)cc2)cc1")
51
>>> observed("N=C(N)c1ccc(C(=O)NCC(=O)N2CCN(CC(=O)O)C(=O)[C@@H]2CCCNC(=O)CCCCN)cc1")
200

Here's the next entry for you.
IN: IC50 of `N=C(N)c1ccc(C(=O)NCC(=O)N2CCN(CC(=O)O)C(=O)[C@@H]2CNC(=O)c2ccc(C(=N)N)cc2)cc1` on platelet aggregation by ADP?
OUT: 130
